# procedure.text: Log P by HPLC on reversed phase columns (EEC directive 79/831 Annex V.A8)
# Format: physicochemical
readout.label: LogP

[[record]]
compound = "OC(Cc1ccc(Cl)cc1F)(Cn1ncnn1)C1(Cl)CC1 (centres unmarked) [Ib-08]"
result = "3.37^[a]"

[[record]]
compound = "OC(Cc1ccc(F)c(Cl)c1)(Cn1cnnn1)C1(Cl)CC1 (centres unmarked) [Ia-52]"
result = "2.90^[a]"

[[record]]
compound = "CC1(C(O)(Cc2cccc(Br)c2)Cn2cnnn2)CC1 (centres unmarked) [Ia-63]"
result = "2.84^[a]"

[[record]]
compound = "COC(Cc1ccccc1Br)(Cn1cnnn1)C1(Cl)CC1 (centres unmarked) [Ia-70]"
result = "3.23^[a]"

[[record]]
compound = "OC(Cc1cc(F)c(F)cc1F)(Cn1cnnn1)C1(Cl)CC1 (centres unmarked) [Ia-51]"
result = "2.66^[a]"

